# system: T1, human CD40-Fc protein (amino acid residue 21-193 of SEQ ID NO: 67 linked to N-terminus of amino acid residue … (human, biotin-labeled in the capture ELISA and in the benchmark blocking ELISA; unlabeled when coated in the ligand blocking ELISA)
# T1 construct: also called biotin-labeled human CD40-Fc; human CD40-Fc-biotin
# T1 sequence (chain, as listed by the source): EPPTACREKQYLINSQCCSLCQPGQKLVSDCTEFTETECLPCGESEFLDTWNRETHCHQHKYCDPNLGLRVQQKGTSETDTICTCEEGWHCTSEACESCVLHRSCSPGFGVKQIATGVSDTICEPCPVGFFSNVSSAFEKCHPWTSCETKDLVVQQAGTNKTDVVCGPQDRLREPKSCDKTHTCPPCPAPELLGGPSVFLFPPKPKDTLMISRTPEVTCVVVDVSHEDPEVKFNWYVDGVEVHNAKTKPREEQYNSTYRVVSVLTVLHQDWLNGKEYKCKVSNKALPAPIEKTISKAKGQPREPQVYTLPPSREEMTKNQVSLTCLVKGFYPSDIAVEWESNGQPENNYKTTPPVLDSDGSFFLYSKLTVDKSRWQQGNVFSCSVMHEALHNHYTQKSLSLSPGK
# assay-notes: capture ELISA, biotin human CD40-Fc; mAb at 0 ng/mL (blank)
metric: absorbance at 450 nm (OD450)
# number only, unit OD450 dropped from output

Below: 2 binders and their reported absorbance at 450 nm.
| binder | reported-measurement |
| --- | --- |
| humanized antibody huC1C1-V1 (antibody, human IgG1, kappa, V domains shown, Human IgG1/kappa; also called humanized C1C1-V1) VH: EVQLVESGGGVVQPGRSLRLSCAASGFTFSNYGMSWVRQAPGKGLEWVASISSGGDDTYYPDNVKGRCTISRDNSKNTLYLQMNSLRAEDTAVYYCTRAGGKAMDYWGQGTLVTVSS VL: EIVLTQSPATLSLSPGERATLSCRASQSIRDNLHWYQQKPGQSPRLLINYASQSISGIPARFSGSGSGTDFTLTISSLEPEDFAVYFCQQFNSWPLTFGQGTKVEIKR | 0.028 |
| humanized antibody huC1C1-V2 (antibody, human IgG1, kappa, V domains shown, Human IgG1/kappa) VH: EVQLVESGGGVVQPGRSLRLSCAASGFTFSNYGMSWVRQAPGKGLEWVASISSGGDDTYYPDNVKGRFTISRDNSKNTLYLQMNSLRAEDTAVYYCTRAGGKAMDYWGQGTLVTVSS VL: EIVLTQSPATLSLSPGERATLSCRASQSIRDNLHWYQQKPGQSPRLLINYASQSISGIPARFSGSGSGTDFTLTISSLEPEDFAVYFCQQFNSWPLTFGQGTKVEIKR | 0.027 |

Shift focus to the following entry.
*Q* Provide measured absorbance at 450 nm value, entry: humanized antibody huC1C1-V3 (antibody, human IgG1, kappa, V domains shown, Human IgG1/kappa) VH: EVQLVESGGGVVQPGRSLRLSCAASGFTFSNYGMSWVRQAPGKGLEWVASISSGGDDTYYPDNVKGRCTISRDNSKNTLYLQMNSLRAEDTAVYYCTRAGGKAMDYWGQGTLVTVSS VL: EIVLTQSPATLSLSPGERATLSCRASQSIRDNLHWYQQKPGQAPRLLINYASQSISGIPARFSGSGSGTDFTLTISSLEPEDFAVYFCQQFNSWPLTFGQGTKVEIKR
*A* 0.024
